- tested-target: T1, Human CD33 ECD-HSA (human)
- T1 construct: CD33 ECD fused at the C-terminus to monomeric HSA (C58S) and a six-histidine tag; also called C33W2; huCD33 ECD-HSA
- protocol-description: ProteOn SPR, mAb captured on anti-human Fc, antigen as analyte
metric-name: koff (s⁻¹)
// units = s⁻¹; emit number, no label

Please indicate koff recorded for C33B914 (antibody, V domains shown, OMNIMouse-derived anti-CD33 mAb; same V regions as C33B906; also called C33H254/C33L120; C33F552) VH: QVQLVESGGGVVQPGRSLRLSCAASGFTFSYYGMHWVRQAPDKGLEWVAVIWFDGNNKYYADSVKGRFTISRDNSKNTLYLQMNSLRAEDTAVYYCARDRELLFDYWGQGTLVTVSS VL: SYELTQPPSVSVSPGQTASITCSGDELGDMYACWYQQKPGQSPLVVIYQDSKRPSGIPERFSGSNSGNTATLTISGTQAMDEAAYYCQTWDTRIAVFGGGTNLTVL
0.0098

Source: patent US20230322924A1
